# Test System: Solute carrier family 22 member 1 (Mus musculus)
# Sequence (O08966 whole entry): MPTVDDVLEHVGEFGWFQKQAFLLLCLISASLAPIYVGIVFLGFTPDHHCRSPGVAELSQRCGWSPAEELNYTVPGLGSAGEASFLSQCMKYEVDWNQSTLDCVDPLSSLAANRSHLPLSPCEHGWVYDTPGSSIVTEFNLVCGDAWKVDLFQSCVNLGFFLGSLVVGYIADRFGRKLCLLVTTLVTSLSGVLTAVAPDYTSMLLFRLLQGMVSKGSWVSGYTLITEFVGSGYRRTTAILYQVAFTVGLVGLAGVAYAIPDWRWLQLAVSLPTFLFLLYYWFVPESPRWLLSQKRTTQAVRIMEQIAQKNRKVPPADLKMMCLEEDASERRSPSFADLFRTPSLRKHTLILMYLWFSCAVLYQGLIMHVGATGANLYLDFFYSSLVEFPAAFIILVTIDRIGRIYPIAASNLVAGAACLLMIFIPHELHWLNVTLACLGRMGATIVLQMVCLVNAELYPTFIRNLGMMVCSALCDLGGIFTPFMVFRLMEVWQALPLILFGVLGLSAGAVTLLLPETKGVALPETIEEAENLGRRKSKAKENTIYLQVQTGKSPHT
# Assay Notes: TP_TRANSPORTER: inhibition of MPP+ uptake (MPP+: 1 uM) in Xenopus laevis oocytes
In this section, each of the compounds is paired with its reported log10 IC50.
Recorded Metric: log10 IC50 (log10 of the value in µM)

# Compound, Test System, log10 IC50
data = [
    ("CNC(=O)c1cccnc1 [NICOTINYL METHYLAMIDE]", "Solute carrier family 22 member 1 (Mus musculus)", 3.87),
    ("C[N+](C)(C)CCO [CHOLINE]", "Solute carrier family 22 member 1 (Mus musculus)", 1.74),
    ("CCN(CC)CCNC(=O)c1ccc(N)cc1 [PROCAINAMIDE]", "Solute carrier family 22 member 1 (Mus musculus)", 0.59),
    ("CN/C(=N/CCSCc1nc[nH]c1C)NC#N [CIMETIDINE]", "Solute carrier family 22 member 1 (Mus musculus)", -0.23),
    ("CC[N+](CC)(CC)CC [TETRYLAMMONIUM]", "Solute carrier family 22 member 1 (Mus musculus)", -0.27),
]
